test-system: T1, BcnI H219Q (UniProt Q8RNV8 1-238, H219Q)
T1 sequence: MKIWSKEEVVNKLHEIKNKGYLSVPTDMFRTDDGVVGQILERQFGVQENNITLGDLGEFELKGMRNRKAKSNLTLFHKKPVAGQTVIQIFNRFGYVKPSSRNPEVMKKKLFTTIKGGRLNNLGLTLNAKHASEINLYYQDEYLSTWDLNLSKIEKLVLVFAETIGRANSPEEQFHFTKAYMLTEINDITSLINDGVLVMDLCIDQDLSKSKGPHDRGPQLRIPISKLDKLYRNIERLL
test-method-notes: EMSA
readout-type: pKd
Notebook: values listed as pKd are -log10 of the concentration (mol/L).

Entry under review: CG oligoduplex (cognate) (dsDNA) DNA 1: CGCACGACTTCCCGGAAGAGCACGC DNA 2: GTTGCGTGCTCTTCCGGGAAGTCGTGCG . Reported pKd?
9.22
